Molecular target: UniProt:P37288
Sequence (P37288 whole entry): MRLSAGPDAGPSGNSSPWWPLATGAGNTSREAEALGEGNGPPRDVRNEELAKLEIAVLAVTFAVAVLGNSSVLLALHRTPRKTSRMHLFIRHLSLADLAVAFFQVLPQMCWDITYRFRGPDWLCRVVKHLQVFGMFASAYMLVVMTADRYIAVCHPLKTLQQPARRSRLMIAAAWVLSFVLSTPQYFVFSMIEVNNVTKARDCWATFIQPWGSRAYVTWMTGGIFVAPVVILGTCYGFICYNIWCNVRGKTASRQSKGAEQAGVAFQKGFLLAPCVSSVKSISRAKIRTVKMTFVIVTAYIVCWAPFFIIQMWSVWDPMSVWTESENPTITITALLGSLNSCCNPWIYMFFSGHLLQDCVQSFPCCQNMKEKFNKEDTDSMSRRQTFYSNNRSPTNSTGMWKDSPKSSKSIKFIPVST
Assay: Cellular in vitro assay for determining vasopressin receptor activity, V1a receptor cell line (photoprotein luminescence)
Conditions: CHO cell line transfected with human V1a receptor; [Arg8]-vasopressin at EC50; compounds of the invention (Table 1A); read-out: IC50 hV1a
IC50 vs 2 nM: less than gives Y; not less than gives N.

Compound	Classification
Cc1ccccc1-n1nc(Cn2nc(-c3ccc(Cl)cc3)n(C[C@H](O)C(F)(F)F)c2=O)nc1CO	Y
CC(O)c1nc(Cn2nc(-c3ccc(Cl)cc3)n(C[C@H](O)C(F)(F)F)c2=O)nn1-c1cccc(OC(F)F)c1 (single isomer, unassigned) [Example 57]	N
CC(O)c1nc(Cn2nc(-c3ccc(Cl)cc3)n(C[C@H](O)C(F)(F)F)c2=O)nn1-c1ccccc1C(F)(F)F (single isomer, unassigned) [Example 74]	N
O=c1n(Cc2nc(CO)n(-c3cc(F)ccc3Cl)n2)nc(-c2ccc(Cl)cc2)n1C[C@H](O)C(F)(F)F	Y
Cc1cccc(-n2nc(Cn3nc(-c4ccc(Cl)cc4)n(C[C@H](O)C(F)(F)F)c3=O)nc2C(C)O)c1 (single isomer, unassigned) [Example 30]	N
CC(O)c1nc(Cn2nc(-c3ccc(Cl)cc3)n(C[C@H](O)C(F)(F)F)c2=O)nn1-c1cccc(Cl)c1F (single isomer, unassigned) [Example 53]	N
